- assay.system: T1, recombinant human EGFR extracellular domain with 6xHis (human, UniProt P00533 25-645)
- T1 construct: In-house produced; also called 6xHis EGFR ECD; soluble human EGFR ECD; not shown: 6xHis tag
- protocol.details: SPR competition, competitor Vectibix
property: % inhibition (%)
Report the figure in % without appending any unit label.

binder	endpoint.unit	value.observed
antibody 1208 (antibody, human IgG1, kappa, V domains shown, Chimeric IgG1 kappa; also called clone 1208) VH: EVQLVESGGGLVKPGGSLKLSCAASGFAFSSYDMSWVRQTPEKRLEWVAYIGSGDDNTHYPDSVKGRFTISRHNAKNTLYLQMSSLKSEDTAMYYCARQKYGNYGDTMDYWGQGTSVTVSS VL: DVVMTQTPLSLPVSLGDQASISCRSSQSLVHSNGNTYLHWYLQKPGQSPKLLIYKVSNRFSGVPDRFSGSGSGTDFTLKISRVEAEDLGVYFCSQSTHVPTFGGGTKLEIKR	%	25
antibody 1261 (antibody, human IgG1, kappa, V domains shown, Chimeric IgG1 kappa) VH: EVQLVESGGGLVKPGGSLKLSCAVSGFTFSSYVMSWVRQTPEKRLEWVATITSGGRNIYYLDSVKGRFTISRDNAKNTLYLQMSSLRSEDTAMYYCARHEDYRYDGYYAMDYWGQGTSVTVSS VL: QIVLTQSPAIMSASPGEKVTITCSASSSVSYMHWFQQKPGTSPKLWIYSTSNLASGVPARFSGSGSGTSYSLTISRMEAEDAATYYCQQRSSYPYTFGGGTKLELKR	%	-21

In the following, a different binder is considered.
Recorded result, antibody 1284 (antibody, human IgG1, kappa, V domains shown, Chimeric IgG1 kappa) VH: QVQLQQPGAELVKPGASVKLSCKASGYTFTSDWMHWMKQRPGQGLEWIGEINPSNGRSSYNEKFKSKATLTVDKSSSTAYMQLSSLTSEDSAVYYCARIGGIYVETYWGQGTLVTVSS VL: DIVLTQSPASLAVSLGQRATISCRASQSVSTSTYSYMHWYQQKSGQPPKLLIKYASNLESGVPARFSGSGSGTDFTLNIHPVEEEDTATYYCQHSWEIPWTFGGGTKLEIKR , % inhibition: -2

All values here come from patent US20110135636A1.
